- ASSAYED TARGET: human TAS1R2-WT/TAS1R3-M110T (Homo sapiens, UniProt Q7RTX0+Q8TE23, M110T)
- Construct: expressed in transfected cells; host or cells: HEK293T stably expressing Gα16gust44
- Sequence (Q8TE23 20-839): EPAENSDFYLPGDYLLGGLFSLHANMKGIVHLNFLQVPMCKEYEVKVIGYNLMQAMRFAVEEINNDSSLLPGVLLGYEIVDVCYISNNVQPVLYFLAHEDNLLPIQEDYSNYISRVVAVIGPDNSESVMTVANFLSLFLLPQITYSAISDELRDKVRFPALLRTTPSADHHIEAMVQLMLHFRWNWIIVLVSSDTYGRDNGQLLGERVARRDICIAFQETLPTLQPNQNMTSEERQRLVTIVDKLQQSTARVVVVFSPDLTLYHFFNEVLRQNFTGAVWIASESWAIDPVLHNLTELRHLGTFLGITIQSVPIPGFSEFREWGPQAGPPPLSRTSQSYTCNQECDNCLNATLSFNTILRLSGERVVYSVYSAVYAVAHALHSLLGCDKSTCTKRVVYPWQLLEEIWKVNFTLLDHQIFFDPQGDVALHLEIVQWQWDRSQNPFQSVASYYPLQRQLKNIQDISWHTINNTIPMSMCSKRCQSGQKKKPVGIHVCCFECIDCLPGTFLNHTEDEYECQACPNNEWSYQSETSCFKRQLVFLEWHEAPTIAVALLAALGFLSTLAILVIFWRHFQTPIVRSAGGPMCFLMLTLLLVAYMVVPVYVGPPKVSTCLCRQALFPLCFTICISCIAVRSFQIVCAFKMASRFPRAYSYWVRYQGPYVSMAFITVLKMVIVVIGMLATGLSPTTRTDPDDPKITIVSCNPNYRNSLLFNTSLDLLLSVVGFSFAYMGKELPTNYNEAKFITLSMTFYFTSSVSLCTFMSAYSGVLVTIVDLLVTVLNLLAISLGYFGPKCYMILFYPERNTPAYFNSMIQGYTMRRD
- Sequence (Q7RTX0 21-852 M110T): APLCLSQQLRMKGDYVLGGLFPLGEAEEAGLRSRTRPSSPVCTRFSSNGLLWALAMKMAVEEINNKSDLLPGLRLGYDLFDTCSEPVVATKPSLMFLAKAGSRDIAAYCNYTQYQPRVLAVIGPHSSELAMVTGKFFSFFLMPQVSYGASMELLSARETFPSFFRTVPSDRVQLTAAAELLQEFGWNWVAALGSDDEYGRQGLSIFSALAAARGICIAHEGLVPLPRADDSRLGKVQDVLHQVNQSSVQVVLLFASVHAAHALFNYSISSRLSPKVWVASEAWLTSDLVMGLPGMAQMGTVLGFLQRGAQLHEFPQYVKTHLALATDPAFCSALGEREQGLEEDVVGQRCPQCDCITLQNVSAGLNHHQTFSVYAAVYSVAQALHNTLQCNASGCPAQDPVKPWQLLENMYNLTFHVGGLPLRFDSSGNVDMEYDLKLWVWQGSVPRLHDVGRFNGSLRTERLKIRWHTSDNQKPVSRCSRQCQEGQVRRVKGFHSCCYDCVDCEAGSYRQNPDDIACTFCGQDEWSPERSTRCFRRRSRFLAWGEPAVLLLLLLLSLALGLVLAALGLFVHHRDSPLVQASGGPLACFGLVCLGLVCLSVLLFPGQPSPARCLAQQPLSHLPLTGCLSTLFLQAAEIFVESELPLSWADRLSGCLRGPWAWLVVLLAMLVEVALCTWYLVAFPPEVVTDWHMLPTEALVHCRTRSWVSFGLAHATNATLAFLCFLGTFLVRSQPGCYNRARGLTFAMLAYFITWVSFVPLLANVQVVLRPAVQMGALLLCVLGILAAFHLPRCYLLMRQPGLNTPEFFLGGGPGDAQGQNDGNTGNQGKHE
- METHOD DESCRIPTION: Calcium mobilisation assay, TAS1R2-WT with TAS1R3 variant M110T
- Format: cell-based
- COND: maximal signal amplitude
QUANTITY KIND: Max ΔF/F0
Numbers only.

Look at each compound and report its Max ΔF/F0.
1. OC[C@H]1O[C@H](O[C@]2(CCl)O[C@H](CCl)[C@@H](O)[C@@H]2O)[C@H](O)[C@@H](O)[C@H]1Cl [Sucralose]
2. C[C@H](CC[C@@H](O[C@@H]1O[C@H](CO[C@@H]2O[C@H](CO)[C@@H](O)[C@H](O)[C@H]2O)[C@@H](O)[C@H](O)[C@H]1O[C@@H]1O[C@H](CO)[C@@H](O)[C@H](O)[C@H]1O)C(C)(C)O)[C@H]1CC[C@@]2(C)[C@@H]3CC=C4[C@@H](CC[C@H](O[C@@H]5O[C@H](CO[C@@H]6O[C@H](CO)[C@@H](O)[C@H](O)[C@H]6O)[C@@H](O)[C@H](O)[C@H]5O)C4(C)C)[C@]3(C)[C@H](O)C[C@]12C [Mogroside V, mogroside V]
3. C=C(C)[C@@H]1CC=C(/C=N/O)CC1 [Perillartine, perillartine]

0.11
0.43
1.31
